Test system: ULK2
Settings: concentration: 1 μM,replicates: in singlicate; n = 1;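 note: KINOMEscan kinase panel screen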
# if measured %Inh < 10%: rule met  # else: rule not met

Record excerpt, results attached:
// query %Inh strictly < 10% for this compound? Cn1ccc2ncnc(Oc3ccc(NC(=O)Nc4cccc(C(F)(F)F)c4)c(F)c3)c21
// result rule met

// query Here's an entry: C[C@@H]1CCN(C(=O)N2CCCC2)C[C@@H]1N(C)c1ncnc2[nH]ccc12 . Is its %Inh below 10%?
// result rule not met

// query Please determine if C[C@@H](Oc1cc(-n2cnc3ccc(-c4ccncc4)cc32)sc1C(N)=O)c1ccccc1Cl [GSK483724] is below 10% in terms of %Inh.
// result rule met

New cases:
// query Does the reported %Inh of the following compound sit strictly below 10%? CCn1c(-c2nonc2N)nc2cncc(CNC3CCNCC3)c21.Cl [SB-747651]
// result rule met

// query Please let me know if Cn1ccc2ncnc(Oc3ccc(NC(=O)Nc4cncc(C(F)(F)F)c4)c(Cl)c3)c21 shows %Inh below 10%.
// result rule met

// query Strictly below 10% in %Inh? Cn1ccc2ncnc(Oc3ccc(NC(=O)Nc4cccc(C(F)(F)F)c4)c(Cl)c3)c21
// result rule met

// query Quick check: does COc1cc2nccc(Nc3ccc(Oc4ccccc4)cc3)c2cc1OC.Cl [GI261656] have %Inh under 10%?
// result rule met

// query Does CNC(=O)c1ccccc1Nc1nc(Nc2cccc(CS(C)(=O)=O)c2)ncc1C.O=CO [GSK1520489] have %Inh strictly under 10%?
// result rule not met

// query Given the entry COc1cccc(C2=C(Nc3cccc(Cl)c3)C(=O)NC2=O)c1 [SB-341556] , would its reported %Inh be below 10%?
// result rule met

// query Strictly below 10% in %Inh? COc1cccc(OC)c1C(=O)Nc1cccc(-c2nn3ccccc3c2-c2ccnc(Nc3cccc(F)c3)n2)c1 [GSK361065]
// result rule not met

// query Identify whether the compound CCn1c(-c2nonc2N)nc2cncc(Br)c21 [SB-738004] records %Inh below 10%.
// result rule not met

// query Dear colleague, could you confirm whether %Inh of Cc1ccc(C(=O)Nc2ccc(Oc3ccc4nc(NC(=O)C5CC5)cn4c3)c(F)c2)c(=O)n1-c1ccccc1 falls below 10%? Thanks.
// result rule met

* * *

System: BUB1
Conditions: concentration: 1 μM,replicates: in singlicate; n = 1
Field 'label' (enum: 1 / 0). Set to 1 when %Inh is strictly under 20%; else 0.

Solved cases (3 shown):
// query Answer whether the molecule CCCC(=O)Nc1n[nH]c2ncccc12 has %Inh strictly less than 20%
// result 1

// query Here's an entry: FC(F)(F)c1cc(Br)cc(Nc2nccc(-c3cnn4ncccc34)n2)c1 . Is its %Inh below 20%?
// result 1

// query Consider the molecule CN1CCN(CCCNc2nccc(-c3c(-c4ccc(F)cc4)nn4cc(C(N)=O)ccc34)n2)CC1 . Is its %Inh strictly less than 20%?
// result 0

Others:
// query Problem: For the molecule CN1CCN(CCNc2nc3cc(Oc4ccc(NC(=O)Nc5cc(C(F)(F)F)ccc5F)cc4)ccc3[nH]2)CC1.Cl.Cl , is %Inh under 20%?
// result 1

// query Given the entry Cn1ccc2ncnc(Oc3ccc(NC(=O)Nc4cc(C(C)(C)C)on4)c(Cl)c3)c21 , would its reported %Inh be below 20%?
// result 1

// query Is %Inh of CCN1CCN(CCCC(=O)Nc2n[nH]c3nc(-c4ccc(O)cc4)c(Br)cc23)CC1 strictly below 20%?
// result 1

// query Could you please tell me whether %Inh recorded for OCCn1cc(-c2cnc3nnn(Cc4ccc5ncccc5c4)c3n2)cn1 is less than 20%?
// result 1

// query Field: below-cutoff. Rule: recorded %Inh strictly less than 20%. Subject: CN(c1ccc2c(c1)nc(NCc1ccc(F)cc1)n2C)c1ccnc(Nc2ccc(CS(C)(=O)=O)cc2)n1.Cl
// result 0

The reported numbers originate from paper PMC5540273.
